# measurement notes: PK of topical ocular sodium phosphate-based Gel Drop, concentrations 1 hour after last dose
# Format: in vivo, Dutch-belted rabbits
# test settings: Dutch-belted, rabbit, plasma, 2 mg/ml, pH 6, 2 mg/ml pH 6 BAK 0.005% Gly 2% Osmo 232, 3x/day 5 days, read-out: [plasma]
# Source text: The Gel Drop of Compound-I was applied to eyes of Dutch-belted rabbits.
result type: concentration at 1 h (nM)

# molecule, test value
measured = [
    ("Cl.NC(=O)c1c(OCc2c(F)cc(Br)cc2F)nsc1NC(=O)NCCCCN1CCCC1 [Compound-I, hydrochloride]", 5.41),
]

###

# measurement notes: PK of topical ocular sodium phosphate-based Gel Drop, concentrations 1 hour after last dose
# Assay type: in vivo, Dutch-belted rabbits
# test settings: Dutch-belted, rabbit, plasma, 1 mg/ml, pH 6, 1 mg/ml pH 6 Phos 0.05% BAK 0.005% Gly 2%, 3x/day 5 days, read-out: [plasma]
# Text: The Gel Drop of Compound-I was applied to eyes of Dutch-belted rabbits.
result type: concentration at 1 h (nM)

# compound, unit abbrev, test value
records = [
    ("Cl.NC(=O)c1c(OCc2c(F)cc(Br)cc2F)nsc1NC(=O)NCCCCN1CCCC1 [Compound-I, hydrochloride]", "nM", 4.45),
]
